Tested on: 786-O
Assay: Euclidean distance of Cell Painting phenotypic profile (signed KS, 77 features) to DMSO centroid (dimensionless distance); 5 or 10 uM (library dependent); higher = stronger phenotypic change vs DMSO (phenoactivity)
Settings: 48 h
Where a name gives a salt, the structure may show the parent alone.
Would you mind telling me the reported Euclidean distance of each entry?
Just the number, please.

Input: Retrieve Euclidean distance measured for `C[C@H](CSC(=O)c1ccccc1)C(=O)N1C[C@@H](Sc2ccccc2)C[C@H]1C(=O)O` and print it.
Output: 0.845

Input: Retrieve Euclidean distance measured for `O=C(O)c1ccc(C=C2SC(=S)N(c3cccc(C(F)(F)F)c3)C2=O)cc1` and print it.
Output: 0.542

Input: Retrieve Euclidean distance measured for C[C@]12C=CC(=O)N[C@@H]1CC[C@@H]1[C@@H]2CC[C@]2(C)[C@@H](C(=O)Nc3cc(C(F)(F)F)ccc3C(F)(F)F)CC[C@@H]12 [Dutasteride] and print it.
Output: 1.17

Input: Retrieve Euclidean distance measured for CCN(CC)Cc1cc(Nc2ccnc3cc(Cl)ccc23)ccc1O [Amodiaquine dihydrochloride dihydrate] and print it.
Output: 3.19

Input: Retrieve Euclidean distance measured for CN[C@H]1CC[C@@H](c2ccc(Cl)c(Cl)c2)c2ccccc21 [Sertraline HCl] and print it.
Output: 2.46

Input: Retrieve Euclidean distance measured for `C#C[C@]1(O)CC[C@H]2[C@@H]3CCC4=Cc5oncc5C[C@]4(C)[C@H]3CC[C@@]21C` and print it.
Output: 1.02

Input: Retrieve Euclidean distance measured for C[C@@H](O[C@H]1OCCN(Cc2n[nH]c(=O)[nH]2)[C@H]1c1ccc(F)cc1)c1cc(C(F)(F)F)cc(C(F)(F)F)c1 [Aprepitant] and print it.
Output: 1.15

Input: Retrieve Euclidean distance measured for Cn1cc(C2=C(c3cn(CCCSC(=N)N)c4ccccc34)C(=O)NC2=O)c2ccccc21 [Ro 31-8220 Mesylate] and print it.
Output: 2.7

Input: Retrieve Euclidean distance measured for `N[C@H](Cc1ccccc1)C(=O)O` and print it.
Output: 1.65

Input: Retrieve Euclidean distance measured for Cc1cccc(C)c1NC(=O)C1CCCCN1C (configuration not stated) [Mepivacaine HCl] and print it.
Output: 1.26

Input: Retrieve Euclidean distance measured for `COc1cc(C(C)=O)ccc1O` and print it.
Output: 0.601

Input: Retrieve Euclidean distance measured for O=C(CCCCCCC(=O)NO)NO [Suberohydroxamic acid] and print it.
Output: 1.22

Input: Retrieve Euclidean distance measured for `CC(C)(CCCCCC(O)CCCCCC(C)(C)C(=O)O)C(=O)O` and print it.
Output: 0.76

Input: Retrieve Euclidean distance measured for CCC[C@@H]1C[C@@H](C(=O)N[C@@H]([C@H]2O[C@H](SC)[C@H](O)[C@@H](O)[C@H]2O)[C@H](C)Cl)N(C)C1 [Clindamycin HCl] and print it.
Output: 1.06

Input: Retrieve Euclidean distance measured for `CCCCC/C=C\C/C=C\CCCCCCCC(=O)O` and print it.
Output: 0.927

Input: Retrieve Euclidean distance measured for `NC(=S)N/N=C/c1ncccc1N` and print it.
Output: 3.56

Input: Retrieve Euclidean distance measured for `COc1cnc(-n2cnc(C)n2)c2[nH]cc(C(=O)C(=O)N3CCN(C(=O)c4ccccc4)CC3)c12` and print it.
Output: 1.35

###

Tested on: OVCAR4
Experiment: Euclidean distance of Cell Painting phenotypic profile (signed KS, 77 features) to DMSO centroid (dimensionless distance); 5 or 10 uM (library dependent); higher = stronger phenotypic change vs DMSO (phenoactivity)
Conditions: 48 h
Where a name gives a salt, the structure may show the parent alone.
assay metric: Euclidean distance
Just the number, please.

Input: Retrieve Euclidean distance measured for `CO[C@H]1/C=C\C=C(/C)C(=O)NC2=CC(=O)C(NCCN(C)C)=C(C[C@@H](C)C[C@H](OC)[C@H](O)[C@@H](C)/C=C(\C)[C@@H]1OC(N)=O)C2=O` and print it.
Output: 2.71

Input: Retrieve Euclidean distance measured for C=CC(=O)N1CCC([C@@H]2CCNc3c(C(N)=O)c(-c4ccc(Oc5ccccc5)cc4)nn32)CC1 [Zanubrutinib (BGB-3111)] and print it.
Output: 1.72

Input: Retrieve Euclidean distance measured for CN(C)CCC=C1c2ccccc2COc2ccccc21 [Doxepin HCl] and print it.
Output: 2.09

Input: Retrieve Euclidean distance measured for CCOC(=O)C1=C(COCCN)NC(C)=C(C(=O)OC)C1c1ccccc1Cl (centres undefined) [Amlodipine] and print it.
Output: 0.837

###

Tested on: DU145
Assay: Euclidean distance of Cell Painting phenotypic profile (signed KS, 77 features) to DMSO centroid (dimensionless distance); 5 or 10 uM (library dependent); higher = stronger phenotypic change vs DMSO (phenoactivity)
Conditions: 48 h
Where a name gives a salt, the structure may show the parent alone.
Would you mind telling me the reported Euclidean distance of each entry?
Just the number, please.

Input: Retrieve Euclidean distance measured for C=C1CC[C@H]2C(=C)CC[C@H]3C(=C)C(=O)O[C@@H]3[C@@H]12 [Dehydrocostus Lactone] and print it.
Output: 7.43

Input: Retrieve Euclidean distance measured for CC(=O)Nc1ccc(C(=O)Nc2ccccc2N)cc1 [CI994 (Tacedinaline)] and print it.
Output: 1.56

Input: Retrieve Euclidean distance measured for CNC1(C)C2CCC(C2)C1(C)C (configuration not stated) [Mecamylamine Hydrochloride] and print it.
Output: 0.617

Input: Retrieve Euclidean distance measured for CCC(=O)O[C@]1(C(=O)SCF)[C@H](C)C[C@H]2[C@@H]3C[C@H](F)C4=CC(=O)C=C[C@]4(C)[C@@]3(F)[C@@H](O)C[C@@]21C [Fluticasone propionate] and print it.
Output: 2.6

Input: Retrieve Euclidean distance measured for Cc1nnc(C(C)C)n1C1C[C@H]2CC[C@@H](C1)N2CC[C@H](NC(=O)C1CCC(F)(F)CC1)c1ccccc1 (stereo in doubt) [Maraviroc] and print it.
Output: 1.04

Input: Retrieve Euclidean distance measured for `C[C@H](NC(=O)[C@@H](Cc1ccc2ccccc2c1)NC(=O)[C@@H](C)N)C(=O)N[C@@H](Cc1c[nH]c2ccccc12)C(=O)N[C@H](Cc1ccccc1)C(=O)N[C@@H](CCCCN)C(N)=O` and print it.
Output: 1.01

Input: Retrieve Euclidean distance measured for CC(N)C12CC3CC(CC(C3)C1)C2 (configuration not stated) [Rimantadine Hydrochloride] and print it.
Output: 0.781

Input: Retrieve Euclidean distance measured for `CC(C)c1noc(N2CCC(COc3ccc(-c4ccc(S(C)(=O)=O)cc4)nc3)CC2)n1` and print it.
Output: 0.872

Input: Retrieve Euclidean distance measured for NC(=O)N[C@@H](CCC(=O)O)C(=O)O [Carglumic Acid] and print it.
Output: 0.949

Input: Retrieve Euclidean distance measured for O=C(O)CCNC(=O)c1ccccc1 [Betamipron] and print it.
Output: 1.01

Input: Retrieve Euclidean distance measured for O=C1OC2(c3ccc(O)cc3Oc3cc(O)ccc32)c2ccccc21 [Fluorescein] and print it.
Output: 0.83

Input: Retrieve Euclidean distance measured for CCC1(c2c[nH]cn2)Cc2ccccc2C1 [Atipamezole] and print it.
Output: 0.626

Input: Retrieve Euclidean distance measured for COCCc1ccc(OCC(O)CNC(C)C)cc1 (configuration not stated) [Metoprolol Tartrate] and print it.
Output: 0.69

Input: Retrieve Euclidean distance measured for `Oc1c2ccccc2c2c3c(cccc13)N=N2` and print it.
Output: 0.792

Input: Retrieve Euclidean distance measured for CCN(CC)CCOC(=O)c1ccc(N)cc1Cl [Chloroprocaine HCl] and print it.
Output: 0.943

Input: Retrieve Euclidean distance measured for CN(Cc1cnc2nc(N)nc(N)c2n1)c1ccc(C(=O)N[C@@H](CCC(=O)O)C(=O)O)cc1 [Methotrexate disodium] and print it.
Output: 0.912

Input: Retrieve Euclidean distance measured for NC(=O)NC1NC(=O)NC1=O (configuration not stated) [Allantoin] and print it.
Output: 1.19

###

Test system: FB
Experiment: Euclidean distance of Cell Painting phenotypic profile (signed KS, 77 features) to DMSO centroid (dimensionless distance); 5 or 10 uM (library dependent); higher = stronger phenotypic change vs DMSO (phenoactivity)
Details: 48 h
Where a name gives a salt, the structure may show the parent alone.
Would you mind telling me the reported Euclidean distance of each entry?
Just the number, please.

Input: Retrieve Euclidean distance measured for N#Cc1ccc2[nH]cc(CCCCN3CCN(c4ccc5oc(C(N)=O)cc5c4)CC3)c2c1 [Vilazodone HCl] and print it.
Output: 1.66

Input: Retrieve Euclidean distance measured for CCCN1CCCC[C@H]1C(=O)Nc1c(C)cccc1C [Ropivacaine] and print it.
Output: 1.93

Input: Retrieve Euclidean distance measured for CCCCOc1cc(C(=O)NCCN(CC)CC)c2ccccc2n1 [Dibucaine HCl] and print it.
Output: 1.07

Input: Retrieve Euclidean distance measured for O=C(Nc1cccc(C2=NCCN2)c1)Nc1cccc(C2=NCCN2)c1 [Imidocarb dipropionate] and print it.
Output: 1.4

Input: Retrieve Euclidean distance measured for Cn1nnc(-c2ccc(-c3ccc(N4C[C@H](COP(=O)(O)O)OC4=O)cc3F)cn2)n1 [Tedizolid Phosphate] and print it.
Output: 0.929

Input: Retrieve Euclidean distance measured for Cc1ccc(S(=O)(=O)NC(=O)NN2CC3CCCC3C2)cc1 (centres undefined) [Gliclazide] and print it.
Output: 1.14

Input: Retrieve Euclidean distance measured for `CC#C[C@]1(O)CC[C@H]2[C@@H]3CCC4=CC(=O)CCC4=C3[C@@H](c3ccc(N(C)C)cc3)C[C@@]21C` and print it.
Output: 1.13

Input: Retrieve Euclidean distance measured for O=C(OCc1ccccc1)c1ccccc1 [Benzyl benzoate] and print it.
Output: 0.794

Input: Retrieve Euclidean distance measured for `NC(=O)c1ncn([C@@H]2O[C@H](CO)[C@@H](O)[C@H]2O)c1N` and print it.
Output: 1.35

Input: Retrieve Euclidean distance measured for OCc1cc(C(O)CNCCCCCCOCCCCc2ccccc2)ccc1O (centres undefined) [Salmeterol Xinafoate] and print it.
Output: 2.11

Input: Retrieve Euclidean distance measured for NS(=O)(=O)c1cc2c(cc1Cl)NC(C(Cl)Cl)NS2(=O)=O (centres undefined) [Trichlormethiazide] and print it.
Output: 0.859

Input: Retrieve Euclidean distance measured for `Cc1ccc(S(=O)(=O)n2c(N)nc3ccccc32)cc1` and print it.
Output: 0.77

Input: Retrieve Euclidean distance measured for `CN(C)CC[C@H](CSc1ccccc1)Nc1ccc(S(=O)(=O)NC(=O)c2ccc(N3CCN(Cc4ccccc4-c4ccc(Cl)cc4)CC3)cc2)cc1[N+](=O)[O-]` and print it.
Output: 0.853

Input: Retrieve Euclidean distance measured for CNNCc1ccc(C(=O)NC(C)C)cc1 [Procarbazine HCl] and print it.
Output: 1.25

Input: Retrieve Euclidean distance measured for `CCC(CC)(NC(=O)C(C)C)C(=O)N[C@@H](CCCN=C(N)N)C(=O)NC1(C(=O)NC(c2ccc(F)cc2)c2ccc(F)cc2)CCCC1` and print it.
Output: 0.736

Input: Retrieve Euclidean distance measured for CC(N)C12CC3CC(CC(C3)C1)C2 (centres undefined) and print it.
Output: 1.35

Input: Retrieve Euclidean distance measured for `O=C(NCCN1CCOCC1)Nc1nc2ccc(Sc3nnc4ccc(-c5ccc(F)cc5)nn34)cc2s1` and print it.
Output: 1.23

Input: Retrieve Euclidean distance measured for `COc1ccc(C[C@H](NC(=O)[C@H](C)NC(=O)CN2CCOCC2)C(=O)N[C@@H](Cc2ccccc2)C(=O)[C@@]2(C)CO2)cc1` and print it.
Output: 5.13

Input: Retrieve Euclidean distance measured for c1ccc([C@H]2CN3CCSC3=N2)cc1 [Levamisole hydrochloride] and print it.
Output: 0.953

Input: Retrieve Euclidean distance measured for Cc1c(-c2ccc(O)cc2)n(Cc2ccc(OCCN3CCCCCC3)cc2)c2ccc(O)cc12 [Bazedoxifene Acetate] and print it.
Output: 4.56

Input: Retrieve Euclidean distance measured for `CCCCC(=O)N(Cc1ccc(-c2ccccc2-c2nnn[nH]2)cc1)[C@H](C(=O)O)C(C)C` and print it.
Output: 0.799

Input: Retrieve Euclidean distance measured for `COc1ccc([C@@H]2CC(=O)c3c(O)cc(O)cc3O2)cc1O` and print it.
Output: 1.47

Input: Retrieve Euclidean distance measured for C[S+]([O-])c1ccc(-c2nc(-c3ccc(F)cc3)c(-c3ccncc3)[nH]2)cc1 (centres undefined) and print it.
Output: 1.03

Input: Retrieve Euclidean distance measured for `Cc1cc(C(=O)NOCCO)c(Nc2ccc(I)cc2F)n(C)c1=O` and print it.
Output: 4.35

Input: Retrieve Euclidean distance measured for `COc1ccc2c(O[C@@H]3C[C@H]4C(=O)N[C@]5(C(=O)NS(=O)(=O)C6CC6)C[C@H]5/C=C\CCCCN(C)C(=O)[C@@H]4C3)cc(-c3nc(C(C)C)cs3)nc2c1C` and print it.
Output: 0.939

Input: Retrieve Euclidean distance measured for `O=C(O)c1ccc2nc(-c3cc(Cl)cc(Cl)c3)oc2c1` and print it.
Output: 0.77

Input: Retrieve Euclidean distance measured for COc1ccc(C(=O)NCc2ccc(OCCN(C)C)cc2)cc1OC [Itopride hydrochloride] and print it.
Output: 0.871

Input: Retrieve Euclidean distance measured for `CC(C)(C)c1cnc(CSc2cnc(NC(=O)C3CCNCC3)s2)o1` and print it.
Output: 3.38

Input: Retrieve Euclidean distance measured for `CN1CCC(NC(=O)c2cc(-c3c(O)cc(O)cc3Oc3ccc([N+](=O)[O-])cc3)on2)CC1` and print it.
Output: 3.37

Input: Retrieve Euclidean distance measured for `CCC(C)(C)C(=O)O[C@H]1C[C@@H](C)C=C2C=C[C@H](C)[C@H](CC[C@@H]3C[C@@H](O)CC(=O)O3)[C@H]21` and print it.
Output: 1.4

Input: Retrieve Euclidean distance measured for `Nc1ncnc2c1ncn2[C@@H]1O[C@H](CO)[C@@H](O)[C@H]1O` and print it.
Output: 0.92

Input: Retrieve Euclidean distance measured for `CCOC(=O)N1CCC(=C2c3ccc(Cl)cc3CCc3cccnc32)CC1` and print it.
Output: 1.05

Input: Retrieve Euclidean distance measured for `c1coc(CNc2ncnc3[nH]cnc23)c1` and print it.
Output: 1.33

Input: Retrieve Euclidean distance measured for `CC(=O)Nc1ccc(C(=O)Nc2ccccc2N)cc1` and print it.
Output: 2.76
